Tested on: MCF7
Assay: Cytotoxicity against human MCF7 cells assessed as growth inhibition after 48 hrs by SRB assay
Type: functional, cell-based
Details: MCF7, 48 h
pIC50: −log10 of the molar value.
pIC50 by entry:
measured-property: pIC50

COc1cc2c(cc1CC=C(C)C)/C(=N/NC(N)=O)C[C@@H](c1ccc(O)cc1)O2 ... 4.71
COc1cc2c(cc1CC=C(C)C)/C(=N/O)C[C@@H](c1ccc(O)cc1)O2 ... 4.63
COc1cc2c(cc1CC1OC1(C)C)C(=O)C[C@@H](c1ccc(O)cc1)O2 (stereo partly specified) ... 4.51
COc1ccc([C@@H]2C/C(=N/OCc3cn(-c4ccc(C(N)=O)cc4)nn3)c3cc(CC=C(C)C)c(OC)cc3O2)cc1 ... 4.93
COc1ccc([C@@H]2C/C(=N/OCc3cn(-c4ccccc4CO)nn3)c3cc(CC=C(C)C)c(OC)cc3O2)cc1 ... 4.63
COc1cc2c(cc1CCC(C)C)C(=O)C[C@@H](c1ccc(O)cc1)O2 ... 4.46

Hello, the source for this data is ChEMBL document CHEMBL4145481, in case you need it.
